All figures here come from paper PMC6445195.

- Target Under Test: AChE (Homo sapiens)
- Measurement Description: biochemical
- Assay type: biochemical
Measured Attribute: Ki

* CCN(CC)Cn1c(=S)sc2ccccc21 | 34 nM

###

- Target Under Test: hCA I (Homo sapiens)
- Construct: from tissue; host or cells: fresh human erythrocytes
- Measurement Description: biochemical
- Assay type: biochemical
- Experimental Setup: purified from human erythrocytes; PNA substrate, 22 °C; read-out: IC50 hCA I
// IC50 lookup, one value per entry
Measured Attribute: IC50

• COCCOCn1c(=S)oc2ccccc21 = 112 nM
• S=c1sc2ccccc2n1CN1CCCCC1 = 86 nM
• CC(C)OCn1c(=S)oc2ccccc21 = 105 nM
• S=c1oc2ccccc2n1CN1CCOCC1 = 94 nM
• CC(C)OCNc1nccs1 = 156 nM
• COCNc1nccs1 = 142 nM
• S=c1oc2ccccc2n1CN1CCOC1 = 103 nM
• S=c1sc2ccccc2n1CN1CCOCC1 = 79 nM
• COCCOCNc1nccs1 = 128 nM
• CCN(CC)Cn1c(=S)oc2ccccc21 = 102 nM

###

- Target Under Test: hCA I (Homo sapiens, UniProt P00915)
- Construct: from tissue; host or cells: fresh human erythrocytes
- Sequence (P00915 whole entry): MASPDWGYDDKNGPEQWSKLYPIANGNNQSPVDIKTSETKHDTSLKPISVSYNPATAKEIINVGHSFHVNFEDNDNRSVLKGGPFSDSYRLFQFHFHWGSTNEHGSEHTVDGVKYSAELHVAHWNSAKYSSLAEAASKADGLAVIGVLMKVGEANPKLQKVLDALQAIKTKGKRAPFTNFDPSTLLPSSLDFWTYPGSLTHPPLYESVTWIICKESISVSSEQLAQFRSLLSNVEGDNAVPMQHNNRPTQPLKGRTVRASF
- Measurement Description: biochemical
- Assay type: biochemical
pKi: −log10 of the molar value.
Measured Attribute: pKi

• CCN(CC)Cn1c(=S)sc2ccccc21 = 7.15

###

- Target Under Test: AChE (Homo sapiens)
- Measurement Description: biochemical
- Type: biochemical
- Experimental Setup: ratio of Ki AChE to Ki BChE
Measured Attribute: AChE/BChE (proportion of AChE to BChE, selectivity)

* S=c1oc2ccccc2n1CN1CCOCC1 | 1.391
* S=c1oc2ccccc2n1CN1CCOC1 | 0.975
* COCNc1nccs1 | 1.285
* COCCOCNc1nccs1 | 0.555
* S=c1sc2ccccc2n1CN1CCCCC1 | 0.439

###

- Target Under Test: BChE (Homo sapiens, UniProt P06276)
- Sequence (P06276 29-602): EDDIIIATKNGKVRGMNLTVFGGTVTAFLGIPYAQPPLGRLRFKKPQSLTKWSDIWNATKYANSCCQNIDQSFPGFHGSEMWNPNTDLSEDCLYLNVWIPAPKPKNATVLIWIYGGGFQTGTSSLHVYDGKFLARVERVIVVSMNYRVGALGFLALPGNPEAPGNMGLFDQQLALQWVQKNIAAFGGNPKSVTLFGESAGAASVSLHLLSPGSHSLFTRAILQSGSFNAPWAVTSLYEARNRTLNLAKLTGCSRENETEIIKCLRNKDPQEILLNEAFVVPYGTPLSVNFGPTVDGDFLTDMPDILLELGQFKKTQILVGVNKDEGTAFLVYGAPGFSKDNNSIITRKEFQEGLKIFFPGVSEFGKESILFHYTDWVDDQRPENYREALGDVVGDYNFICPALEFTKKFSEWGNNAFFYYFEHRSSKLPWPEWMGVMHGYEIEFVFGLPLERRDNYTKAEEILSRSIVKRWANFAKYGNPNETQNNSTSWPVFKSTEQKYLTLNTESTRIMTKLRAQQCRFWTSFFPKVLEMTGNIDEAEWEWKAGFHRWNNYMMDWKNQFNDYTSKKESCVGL
- Measurement Description: biochemical
- Type: biochemical
- Experimental Setup: Ellman; Tris/HCl pH 8.0, 25 °C; read-out: IC50 BChE
pIC50: −log10 of the molar value.
// pIC50 lookup, one value per entry
Measured Attribute: pIC50

• S=c1sc2ccccc2n1CN1CCOCC1 = 7.06
• COCCOCNc1nccs1 = 6.96
• S=c1oc2ccccc2n1CN1CCOCC1 = 7.32
• S=c1oc2ccccc2n1CN1CCOC1 = 7.08

###

- Target Under Test: AChE (Homo sapiens, UniProt P22303)
- Sequence (P22303 32-614): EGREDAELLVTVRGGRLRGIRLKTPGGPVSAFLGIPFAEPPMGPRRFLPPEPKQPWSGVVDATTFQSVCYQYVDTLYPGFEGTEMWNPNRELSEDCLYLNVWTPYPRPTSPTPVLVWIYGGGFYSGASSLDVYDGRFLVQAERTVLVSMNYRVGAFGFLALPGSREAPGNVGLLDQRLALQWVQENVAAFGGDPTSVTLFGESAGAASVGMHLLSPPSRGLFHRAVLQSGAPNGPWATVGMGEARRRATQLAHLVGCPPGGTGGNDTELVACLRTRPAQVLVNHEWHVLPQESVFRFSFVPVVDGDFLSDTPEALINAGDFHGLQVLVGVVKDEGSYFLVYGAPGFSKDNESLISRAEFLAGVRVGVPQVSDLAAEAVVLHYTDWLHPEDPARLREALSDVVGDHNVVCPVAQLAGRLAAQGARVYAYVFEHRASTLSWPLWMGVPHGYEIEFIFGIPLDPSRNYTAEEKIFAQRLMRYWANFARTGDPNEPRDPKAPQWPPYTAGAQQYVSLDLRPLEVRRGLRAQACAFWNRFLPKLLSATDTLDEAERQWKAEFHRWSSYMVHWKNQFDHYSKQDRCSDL
- Measurement Description: biochemical
- Type: biochemical
- Experimental Setup: Ellman; Tris/HCl pH 8.0, 25 °C; read-out: IC50 AChE
pIC50: −log10 of the molar value.
Measured Attribute: pIC50

- CCN(CC)Cn1c(=S)oc2ccccc21: 7.36
- COCCOCn1c(=S)oc2ccccc21: 7.42
- S=c1sc2ccccc2n1CN1CCCCC1: 7.44
- CC(C)OCNc1nccs1: 7.12
- COCCOCNc1nccs1: 7.37
- S=c1sc2ccccc2n1CN1CCOCC1: 7.29

###

- Target Under Test: AChE (Homo sapiens, UniProt P22303)
- Measurement Description: biochemical
- Type: biochemical
- Experimental Setup: read-out: Ki AChE
// Ki lookup, one value per entry
Measured Attribute: Ki (nM)

- COCNc1nccs1 [Compound 17, 2-(methoxy)methylaminothiazole]: 54
- COCCOCNc1nccs1 [Compound 15, 2-(methoxyethoxy) methylaminothiazole]: 25
- CC(C)OCn1c(=S)oc2ccccc21 [Compound 13, N-isopropoxymethylbenzoxazoline-2-thione]: 34
- COCCOCn1c(=S)oc2ccccc21 [Compound 14]: 23
- CCN(CC)Cn1c(=S)oc2ccccc21 [Compound 6]: 45
